tested-target: Proto-oncogene tyrosine-protein kinase Src (Homo sapiens, UniProt P12931)
Sequence (P12931 2-536 limits assumed): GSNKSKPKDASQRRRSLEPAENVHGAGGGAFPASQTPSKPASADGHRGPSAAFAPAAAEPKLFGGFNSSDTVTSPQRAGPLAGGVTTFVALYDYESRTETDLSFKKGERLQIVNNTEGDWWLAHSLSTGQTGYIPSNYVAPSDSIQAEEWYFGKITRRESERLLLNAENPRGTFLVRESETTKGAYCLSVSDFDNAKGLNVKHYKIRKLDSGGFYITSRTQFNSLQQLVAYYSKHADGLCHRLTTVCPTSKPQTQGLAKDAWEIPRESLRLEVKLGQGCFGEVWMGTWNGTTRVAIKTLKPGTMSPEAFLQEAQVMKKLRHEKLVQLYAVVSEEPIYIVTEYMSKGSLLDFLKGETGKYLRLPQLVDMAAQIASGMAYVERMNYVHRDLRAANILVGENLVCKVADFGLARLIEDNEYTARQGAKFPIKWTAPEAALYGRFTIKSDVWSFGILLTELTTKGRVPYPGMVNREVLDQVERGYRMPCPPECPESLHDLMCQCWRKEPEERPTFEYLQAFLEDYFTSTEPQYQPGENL
experimental-details: Enzyme inhibitory activity against recombinant human Src protein tyrosine kinase
recorded-metric: log10 of IC50 (log10 of the value in µM)
Values reflect log10 of reported IC50 (µM).

Entry under test: "COc1cc(Nc2c(C#N)cnc3cc(/C=C/c4cccnc4)c(OC)cc23)c(Cl)cc1Cl" . Its log10 of IC50 was -2.08

Entry under test: "COc1cc(Nc2c(C#N)cnc3cc(/C=C/c4ccc5ccccc5c4)ccc23)c(Cl)cc1Cl" . Its log10 of IC50 was -0.49

Entry under test: "N#Cc1cnc2cc(/C=C/c3ccncc3)ccc2c1Oc1ccc(Cl)cc1Cl" . Its log10 of IC50 was -0.42

Entry under test: "N#Cc1cnc2cc(/C=C/c3ccncc3)ccc2c1NCc1ccc(Cl)cc1Cl" . Its log10 of IC50 was 0.00

Entry under test: "C=Cc1ccc2c(Nc3cc(OC)c(Cl)cc3Cl)c(C#N)cnc2c1" . Its log10 of IC50 was -1.01

Entry under test: "COc1cc(Nc2c(C#N)cnc3cc(C#Cc4ccncc4)ccc23)c(Cl)cc1Cl" . Its log10 of IC50 was -1.08

Entry under test: "COc1cc(Nc2c(C#N)cnc3cc(/C=C/c4ccc(-c5ccccc5)cc4)ccc23)c(Cl)cc1Cl" . Its log10 of IC50 was 0.36

Entry under test: "CCOC(=O)c1cnc2cc(/C=C/c3ccncc3)ccc2c1Nc1ccc(Cl)cc1Cl" . Its log10 of IC50 was 1.08

Entry under test: "COc1cc(Nc2c(C#N)cnc3cc(/C=C/c4ccccc4)ccc23)c(Cl)cc1Cl" . Its log10 of IC50 was -0.74

Entry under test: "O=C(O)c1cnc2cc(/C=C/c3ccncc3)ccc2c1Nc1ccc(Cl)cc1Cl" . Its log10 of IC50 was 0.20

Entry under test: "COc1cc(Nc2c(C#N)cnc3cc(C#Cc4ccc(-c5ccccc5)cc4)ccc23)c(Cl)cc1Cl" . Its log10 of IC50 was -0.38

Entry under test: "CCOc1cc(Nc2c(C#N)cnc3cc(/C=C/c4ccncc4)ccc23)c(Cl)cc1Cl" . Its log10 of IC50 was 0.49

Entry under test: "COc1cc(Nc2c(C#N)cnc3cc(/C=C/c4ccccn4)ccc23)c(Cl)cc1Cl" . Its log10 of IC50 was -1.72

Entry under test: "COc1cc(Nc2c(C#N)cnc3cc(C#Cc4ccccc4)c(OC)cc23)c(Cl)cc1Cl" . Its log10 of IC50 was -1.24

Entry under test: "N#Cc1cnc2cc(C#Cc3cccnc3)ccc2c1Nc1ccc(Cl)cc1Cl" . Its log10 of IC50 was -0.70

Entry under test: "COc1cc(Nc2c(C#N)cnc3cc(C#Cc4ccccn4)ccc23)c(Cl)cc1Cl" . Its log10 of IC50 was -0.28

Entry under test: "COc1cc(Nc2c(C#N)cnc3cc(/C=C/c4ccccc4)c(OC)cc23)c(Cl)cc1Cl" . Its log10 of IC50 was -1.19

Entry under test: "COc1cc(Nc2c(C#N)cnc3cc(/C=C/c4cccnc4)ccc23)c(Cl)cc1Cl" . Its log10 of IC50 was -1.82

Entry under test: "COc1cc(Nc2c(C#N)cnc3cc(C#Cc4ccccc4)ccc23)c(Cl)cc1Cl" . Its log10 of IC50 was -0.49
